ASSAY_ENDPOINT: Ki (nM)
# value in nM; strip the unit string

Give reported Ki for COC(=O)C1C(c2ccc(I)cc2)CC2CCC1N2C (stereo not drawn) [β-CIT, β-Carbomethoxy-3β-(4-iodophenyl) tropane, reference compound] (UniProt:P31652) 0.46

---

- TESTED_SYSTEM: dopamine transporter (DAT) (Rattus norvegicus, UniProt P23977)
- Construct: from tissue; host or cells: rat striatal tissue
- Sequence (P23977 whole entry): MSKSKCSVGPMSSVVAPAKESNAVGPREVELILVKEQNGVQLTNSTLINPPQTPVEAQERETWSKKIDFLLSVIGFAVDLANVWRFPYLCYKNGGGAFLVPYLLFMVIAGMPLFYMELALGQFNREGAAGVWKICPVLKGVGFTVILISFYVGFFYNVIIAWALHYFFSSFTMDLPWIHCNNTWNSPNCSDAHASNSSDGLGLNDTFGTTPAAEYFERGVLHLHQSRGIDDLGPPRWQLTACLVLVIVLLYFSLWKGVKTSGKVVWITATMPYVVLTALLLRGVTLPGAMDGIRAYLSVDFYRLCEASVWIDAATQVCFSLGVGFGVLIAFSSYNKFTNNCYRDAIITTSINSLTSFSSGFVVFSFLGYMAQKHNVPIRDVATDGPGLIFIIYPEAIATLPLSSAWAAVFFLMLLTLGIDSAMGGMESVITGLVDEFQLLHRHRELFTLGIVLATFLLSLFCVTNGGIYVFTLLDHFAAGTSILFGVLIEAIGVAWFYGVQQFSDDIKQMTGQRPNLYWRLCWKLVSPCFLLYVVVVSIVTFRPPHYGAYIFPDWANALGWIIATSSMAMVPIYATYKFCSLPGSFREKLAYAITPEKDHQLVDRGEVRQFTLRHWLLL
- PROTOCOL: Dopamine transporter binding affinity in rat striatal tissue
- DETAILS: mean±SEM; rat striatal and cortical tissues
ASSAY_ENDPOINT: Ki (nM)
# value in nM; strip the unit string

Please report Ki for the following compound: COC(=O)C1C(c2ccc(I)cc2)CC2CCC1N2C (stereo not drawn) [β-CIT, β-Carbomethoxy-3β-(4-iodophenyl) tropane, reference compound] 0.96
